Tested on: NCI-H2452 (Mesothelioma)
Assay Comment: Bliss excess, mean over the matrix (fraction); higher = more synergy
Entries annotated with measured Bliss excess
Respond numerically, and do not add a unit to the figure.

Example results:
query: Query Bliss excess on NCI-H2452 (Mesothelioma) for C[C@@H]1COCCN1c1cc(C2([S@](C)(=N)=O)CC2)nc(-c2ccnc3[nH]ccc23)n1 [AZD6738] + Nc1ccn([C@@H]2O[C@H](CO)[C@@H](O)C2(F)F)c(=O)n1 [Gemcitabine] (first compound max 10 µM, 7x7, partner max 0.3 µM)
result: 0.0333

query: Quick one: COc1cccc(OCCCN)c1-c1cc(Nc2cnc(C#N)cn2)n[nH]1 [Prexasertib] + O=C(c1cc(Cc2n[nH]c(=O)c3ccccc23)ccc1F)N1CCN(C(=O)C2CC2)CC1 [Olaparib] (first compound max 1 µM, 7x7, partner max 10 µM)
result: -0.0874

query: // same read-out, input: Cc1cc2ncnn2cc1Nc1ncc2c(n1)n(C1CCOCC1)c(=O)n2C [AZD7648] + CCN(CCO)CCCOc1ccc2c(Nc3cc(CC(=O)Nc4cccc(F)c4)[nH]n3)ncnc2c1 [AZD2811] (first compound max 10 µM, 7x7, partner max 1 µM)
result: 0.001

***
query: Query the reported Bliss excess for NCI-H2452 (Mesothelioma); item: Cc1c2c(nn1C)CSCc1cc(n(C)n1)CSc1cc(c3ccccc3c1)OCCCc1c(C(=O)O)n(C)c3c-2c(Cl)ccc13 [AZD5991] + Nc1ccn([C@@H]2O[C@H](CO)[C@@H](O)C2(F)F)c(=O)n1 [Gemcitabine] (first compound max 1 µM, 7x7, partner max 0.3 µM)
result: -0.0642

* * *

Tested on: SCC90 (Head and Neck Carcinoma)
Assay Comment: Bliss excess, mean over the matrix (fraction); higher = more synergy
Overview of recorded Bliss excess for various compounds
Hey, just send me the number, nothing else.

query: Bliss excess lookup needed for CN(CCO)CC[C@H](CSc1ccccc1)Nc1ccc(S(=O)(=O)NC(=O)c2ccc(N3CCC([C@@H](O)c4ccccc4-c4ccc(Cl)cc4)CC3)cc2)cc1S(=O)(=O)C(F)(F)F [AZD4320] + CCN(CCO)CCCOc1ccc2c(Nc3cc(CC(=O)Nc4cccc(F)c4)[nH]n3)ncnc2c1 [AZD2811] (first compound max 1 µM, 7x7, partner max 1 µM) , thanks.
result: 0.134

query: Continue with CS(=O)(=O)CCNCc1ccc(-c2ccc3ncnc(Nc4ccc(OCc5cccc(F)c5)c(Cl)c4)c3c2)o1 [Lapatinib] + NC1(c2ccc(-c3nc4ccn5c(=O)[nH]nc5c4cc3-c3ccccc3)cc2)CCC1 [MK-2206] (first compound max 10 µM, 7x7, partner max 10 µM)
result: 0.0358

* * *

System: MG-63 (Osteosarcoma)
Assay Comment: combination Emax (second highest fraction inhibited in the dose matrix, 72 h); higher = more inhibition; extreme values may be limits of the assay
Assay Endpoint: combination Emax
Write the number on its own, no unit after it.

query: Entry CN(CCO)CC[C@H](CSc1ccccc1)Nc1ccc(S(=O)(=O)NC(=O)c2ccc(N3CCC([C@@H](O)c4ccccc4-c4ccc(Cl)cc4)CC3)cc2)cc1S(=O)(=O)C(F)(F)F [AZD4320] + Cc1cc2ncnn2cc1Nc1ncc2c(n1)n(C1CCOCC1)c(=O)n2C [AZD7648] (first compound max 1 µM, 7x7, partner max 10 µM) , system MG-63 (Osteosarcoma): what combination Emax was measured?
result: 0.179

* * *

System: HT-144 (Melanoma)
Assay Comment: Bliss excess, mean over the matrix (fraction); higher = more synergy
Assay Endpoint: Bliss excess
Answer with a number only.

Look over these answered cases.
query: Query: Bliss excess; subject: CC1(C)CCC(CN2CCN(c3ccc(C(=O)NS(=O)(=O)c4ccc(NCC5CCOCC5)c([N+](=O)[O-])c4)c(Oc4cnc5[nH]ccc5c4)c3)CC2)=C(c2ccc(Cl)cc2)C1 [Venetoclax] + CCN(CCO)CCCOc1ccc2c(Nc3cc(CC(=O)Nc4cccc(F)c4)[nH]n3)ncnc2c1 [AZD2811] (first compound max 1 µM, 7x7, partner max 1 µM)
result: -0.0132

query: // same read-out, input: Cc1cc2ncnn2cc1Nc1ncc2c(n1)n(C1CCOCC1)c(=O)n2C [AZD7648] + CCN(CCO)CCCOc1ccc2c(Nc3cc(CC(=O)Nc4cccc(F)c4)[nH]n3)ncnc2c1 [AZD2811] (first compound max 10 µM, 7x7, partner max 1 µM)
result: 0.0088

More entries:
query: Quick one: Bliss excess for Cc1c2c(nn1C)CSCc1cc(n(C)n1)CSc1cc(c3ccccc3c1)OCCCc1c(C(=O)O)n(C)c3c-2c(Cl)ccc13 [AZD5991] + C1CN(CCC1(C(=O)N[C@@H](CCO)C2=CC=C(C=C2)Cl)N)C3=NC=NC4=C3C=CN4 [Capivasertib] (first compound max 1 µM, 7x7, partner max 3 µM) ?
result: 0.0582

* * *

Test system: MDA-MB-175-VII (Breast Carcinoma)
Assay Comment: combination Emax (second highest fraction inhibited in the dose matrix, 72 h); higher = more inhibition; extreme values may be limits of the assay
Classify as follows. Reported combination Emax greater than or equal to 0.3: label 1. Reported combination Emax below: label 0.

query: # check: combination Emax of C[C@@H](c1ccc2nccn2c1)n1nnc2ncc(-c3cnn(C)c3)nc21 [Savolitinib] + Cc1c2c(nn1C)CSCc1cc(n(C)n1)CSc1cc(c3ccccc3c1)OCCCc1c(C(=O)O)n(C)c3c-2c(Cl)ccc13 [AZD5991] (first compound max 1 µM, 7x7, partner max 1 µM) is greater than or equal to 0.3
result: label 0

query: Then COc1cccc(OCCCN)c1-c1cc(Nc2cnc(C#N)cn2)n[nH]1 [Prexasertib] + Cc1cc2ncnn2cc1Nc1ncc2c(n1)n(C1CCOCC1)c(=O)n2C [AZD7648] (first compound max 1 µM, 7x7, partner max 10 µM) ?
result: label 1

query: Follow-up item: CN(CCO)CC[C@H](CSc1ccccc1)Nc1ccc(S(=O)(=O)NC(=O)c2ccc(N3CCC([C@@H](O)c4ccccc4-c4ccc(Cl)cc4)CC3)cc2)cc1S(=O)(=O)C(F)(F)F [AZD4320] + Cn1cnc2c(F)c(Nc3ccc(Br)cc3Cl)c(C(=O)NOCCO)cc21 [Selumetinib] (first compound max 1 µM, 7x7, partner max 3 µM)
result: label 1

Others:
query: Kindly determine if combination Emax recorded for Cc1c2c(nn1C)CSCc1cc(n(C)n1)CSc1cc(c3ccccc3c1)OCCCc1c(C(=O)O)n(C)c3c-2c(Cl)ccc13 [AZD5991] + CC(=O)O[C@H]1C(=O)[C@@]2(C)[C@H]([C@H](OC(=O)c3ccccc3)[C@]3(O)C[C@H](OC(=O)[C@H](O)[C@@H](NC(=O)c4ccccc4)c4ccccc4)C(C)=C1C3(C)C)[C@]1(OC(C)=O)CO[C@@H]1C[C@@H]2O [Paclitaxel] (first compound max 1 µM, 7x7, partner max 3 µM) is above or exactly 0.3.
result: label 1

query: Query Cc1cc2ncnn2cc1Nc1ncc2c(n1)n(C1CCOCC1)c(=O)n2C [AZD7648] + CCN(CCO)CCCOc1ccc2c(Nc3cc(CC(=O)Nc4cccc(F)c4)[nH]n3)ncnc2c1 [AZD2811] (first compound max 10 µM, 7x7, partner max 1 µM) next
result: label 1

query: And Cc1c2c(nn1C)CSCc1cc(n(C)n1)CSc1cc(c3ccccc3c1)OCCCc1c(C(=O)O)n(C)c3c-2c(Cl)ccc13 [AZD5991] + CC1(C)CCC(CN2CCN(c3ccc(C(=O)NS(=O)(=O)c4ccc(NCC5CCOCC5)c([N+](=O)[O-])c4)c(Oc4cnc5[nH]ccc5c4)c3)CC2)=C(c2ccc(Cl)cc2)C1 [Venetoclax] (first compound max 1 µM, 7x7, partner max 1 µM) ?
result: label 0

query: Now consider CCc1c2c(nc3ccc(O)cc13)-c1cc3c(c(=O)n1C2)COC(=O)[C@]3(O)CC [SN-38] + O=C(c1cc(Cc2n[nH]c(=O)c3ccccc23)ccc1F)N1CCN(C(=O)C2CC2)CC1 [Olaparib] (first compound max 0.3 µM, 7x7, partner max 10 µM) and answer again.
result: label 1

* * *

Test system: ATN-1 (T-Lymphoblastic Leukemia)
Assay Comment: combination Emax (second highest fraction inhibited in the dose matrix, 72 h); higher = more inhibition; extreme values may be limits of the assay
Parameter combination Emax: see the listing below.

query: Data request, read-out combination Emax, for COc1nnc2ccc(N3CCC(c4ccc(OCCN5CCN(C)C(=O)[C@H]5C)cc4)CC3)nn12 [AZD5153] + CCN(CCO)CCCOc1ccc2c(Nc3cc(CC(=O)Nc4cccc(F)c4)[nH]n3)ncnc2c1 [AZD2811] (first compound max 1 µM, 7x7, partner max 1 µM)
result: 0.734

query: Same for CN(CCO)CC[C@H](CSc1ccccc1)Nc1ccc(S(=O)(=O)NC(=O)c2ccc(N3CCC([C@@H](O)c4ccccc4-c4ccc(Cl)cc4)CC3)cc2)cc1S(=O)(=O)C(F)(F)F [AZD4320] + C[C@@H]1COCCN1C2=NC(=NC(=C2)C3(CC3)[S@](=N)(=O)C)C4=C5C=CNC5=NC=C4 [AZD6738] (first compound max 1 µM, 7x7, partner max 10 µM)
result: 0.978

query: Next record, please: CN(C)CCCOc1ccc(-c2ccc3ncc4c(c3c2)n(C2CCOCC2)c(=O)n4C)cn1 [AZD0156] + C=CCn1c(=O)c2cnc(Nc3ccc(N4CCN(C)CC4)cc3)nc2n1-c1cccc(C(C)(C)O)n1 [AZD1775] (first compound max 1 µM, partner max 1 µM)
result: 1

query: Subsequent entry: Cn1cnc2c(F)c(Nc3ccc(Br)cc3Cl)c(C(=O)NOCCO)cc21 [Selumetinib] + CCN(CCO)CCCOc1ccc2c(Nc3cc(CC(=O)Nc4cccc(F)c4)[nH]n3)ncnc2c1 [AZD2811] (first compound max 10 µM, 7x7, partner max 1 µM)
result: 0.734
